Experiment: NCI Yeast Anticancer Drug Screen. Data for the cln2 rad14 strain (AID 165);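 also: 0% = growth equal to vehicle treated cultures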
Conditions: S. cerevisiae cln2 rad14 strain, at 50.0 µM, active compounds read high
Compounds without any hit were thinned out: in the full panel of roughly 79,000, 15% have a hit.
readout_name: growth inhibition (%)
Give the value in % but do not write % after it.

Below, 10 compounds whose answers are already recorded.
// growth inhibition lookup, compound = Clc1cc2nc(C3CCCO3)[nH]c2cc1Cl (configuration not stated) , result: 5

Looking up CCCOC(=O)C(=O)OCCC , I found its growth inhibition recorded as -6

The recorded growth inhibition for entry Cc1cccc2c1C(=O)OC2(c1cccc2ccccc12)c1cccc2ccccc12 equals -15.7

For reference, reported growth inhibition for COc1ccc(OC)c(NC(=O)OCc2ccc3c(c2)OCO3)c1 stands at 10.2

Lab book: growth inhibition of CCOC(=O)CCc1ccco1 noted as 4.15

Value of measured growth inhibition for the entry COc1ccc(-c2cc(=O)c3c(OC)cccc3o2)c(OC)c1OC : 0.95

The compound identified as Cc1nc2ccccc2nc1CCC(=O)O registered its growth inhibition at -23.6

Entry N#Cc1c(Cl)cccc1N1CCSCC1 — recorded growth inhibition = 18.2

Record Cc1cc2c(C)nn(Cc3ccccc3Cl)c2c(C#N)c1C , field growth inhibition: 23.9

Reported growth inhibition ( O=C(NC/C=C/Br)NC1CCNc2ccccc21 (configuration not stated) ) = 28.6

---
Entry CCCOC(=O)/C=C/c1ccc(OC)cc1 — recorded growth inhibition = -12.2

Looking up CC(C)n1c(=S)[nH]c2c(=O)[nH]c(=O)[nH]c21 , I found its growth inhibition recorded as -53.2

Measured growth inhibition, CCCOc1ccc(C(=O)C(=O)c2ccccc2)cc1 : 0.8

# growth inhibition (compound: Cn1c2c(c(=O)n(C)c1=O)C(=Nc1ccccc1)C(=O)N2 ) is -38.3

Quick note, growth inhibition for O=C1OC2(OC2c2ccccc2)c2ccccc21 (configuration not stated) landed at -15.2

For this compound ( Cc1[nH]c(-c2ccccc2)c2nc(N(C)C)oc(=O)c12 ), measured growth inhibition is 10.5

Please fill in: growth inhibition reported for NC(=O)NC=O = 1.25

# growth inhibition of CCOC(=O)C1CSC(N)=N1 (configuration not stated) = -29.4

// growth inhibition value for CC(C)[Si](OC1=C(c2ccccc2)C(NC(=O)/C=C/c2ccc([N+](=O)[O-])cc2)CCC1)(C(C)C)C(C)C (configuration not stated) : -6.7
